assay.target: Adenosine A2A receptor (Homo sapiens)
test.method.notes: Adenosine A2A receptor competitive binding assay (Tag-lite HTRF)
measurement.context: Tag-lite adenosine A2A receptor ligand binding, 2 h room temperature; values separated by / are repeat determinations
Strictly below 80 nM in IC50: T. Otherwise: F.

The following molecules have reported results that may help.
[
  {
    "given.smiles": "Cc1cc(-c2c(OCc3ncc(C#N)n3C(C)C)nc(N)nc2-c2ccc(F)cc2)cc(C(F)F)n1",
    "assay.target": "Adenosine A2A receptor (Homo sapiens)",
    "qualitative.label": "T"
  },
  {
    "given.smiles": "CCN(CCO)C(=O)COc1nc(N)nc(-c2ccc(F)cc2)c1-c1cc(C)nc(C(F)F)c1",
    "assay.target": "Adenosine A2A receptor (Homo sapiens)",
    "qualitative.label": "T"
  },
  {
    "given.smiles": "Cc1cc(-c2c(OCCN(C)c3ccc(C#N)cn3)nc(N)nc2-c2ccc(F)cc2)cc(C(F)F)n1",
    "assay.target": "Adenosine A2A receptor (Homo sapiens)",
    "qualitative.label": "F"
  },
  {
    "given.smiles": "Cc1cc(-c2c(C(=O)NCc3cccc(C(C)(C)O)n3)nc(N)nc2-c2ccc(F)cc2)cc(C(F)F)n1",
    "assay.target": "Adenosine A2A receptor (Homo sapiens)",
    "qualitative.label": "F"
  },
  {
    "given.smiles": "Cc1cc(-c2c(OCc3nccn3C3CCOCC3)nc(N)nc2-c2ccc(F)cc2)cc(C(F)F)n1",
    "assay.target": "Adenosine A2A receptor (Homo sapiens)",
    "qualitative.label": "F"
  },
  {
    "given.smiles": "CCN(CC)C(=O)COc1nc(N)nc(-c2ccc(F)cc2)c1-c1cc(C)nc(C(F)F)c1",
    "assay.target": "Adenosine A2A receptor (Homo sapiens)",
    "qualitative.label": "T"
  }
]

API: the following record is the query input.
A record lists Cc1cc(-c2c(OCCN(C)c3cc(OCCO)ccn3)nc(N)nc2-c2ccc(F)cc2)cc(C(F)F)n1 . Is its IC50 below 80 nM? T

* * *

assay.target: Adenosine A2A receptor (Homo sapiens, UniProt P29274)
Sequence (P29274 whole entry): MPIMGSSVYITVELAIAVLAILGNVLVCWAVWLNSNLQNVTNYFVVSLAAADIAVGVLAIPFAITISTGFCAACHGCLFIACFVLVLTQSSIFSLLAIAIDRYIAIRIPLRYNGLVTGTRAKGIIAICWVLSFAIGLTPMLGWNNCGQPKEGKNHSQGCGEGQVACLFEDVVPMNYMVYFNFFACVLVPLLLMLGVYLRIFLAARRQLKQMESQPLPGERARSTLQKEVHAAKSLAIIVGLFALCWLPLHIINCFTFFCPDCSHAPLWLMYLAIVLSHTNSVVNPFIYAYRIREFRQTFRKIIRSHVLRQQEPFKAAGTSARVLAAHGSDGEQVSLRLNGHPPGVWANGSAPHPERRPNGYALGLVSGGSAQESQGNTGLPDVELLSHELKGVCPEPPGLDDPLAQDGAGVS
test.method.notes: cAMP assay in 293A cells stably expressing the adenosine A2A receptor (CGS21680 stimulation, HTRF)
Format: cell-based
Set-up: expressed in transfected cells; host or cells: 293A cells (Invitrogen, Cat# R705-07) infected with A2A-expressing lentivirus (custom packaged by Biosettia), puromycin selected
measurement.context: 293A-A2AR cells, 0.1% BSA, 8 nM CGS; values separated by / are repeat determinations; read-out: cAMP (nM) 0.1% BSA, 8 nM CGS
For each record, check the reported IC50: if it is below 4 nM write Criterion met, else write Criterion not met.

Study these solved cases before continuing.
[
  {
    "given.smiles": "Cc1cc(-c2c(OCc3nncn3C(C)C)nc(N)nc2-c2ccc(F)cc2)cc(C(F)F)n1",
    "qualitative.label": "Criterion met"
  },
  {
    "given.smiles": "Cc1cc(-c2c(OCCN3CCN(C4COC4)CC3)nc(N)nc2-c2ccc(F)cc2)cc(C(F)F)n1",
    "qualitative.label": "Criterion not met"
  },
  {
    "given.smiles": "CCN(C(=O)COc1nc(N)nc(-c2ccc(F)cc2)c1-c1cc(C)nc(C(F)F)c1)C1COC1",
    "qualitative.label": "Criterion not met"
  },
  {
    "given.smiles": "Cc1cc(-c2c(OCC(=O)N(C)c3ccccc3)nc(N)nc2-c2ccc(F)cc2)cc(C(F)F)n1",
    "qualitative.label": "Criterion met"
  },
  {
    "given.smiles": "Cc1cc(-c2c(OCC3CNC3)nc(N)nc2-c2ccc(F)cc2)cc(C(F)F)n1",
    "qualitative.label": "Criterion not met"
  }
]

Given the entry Cc1cc(-c2c(OCc3nccn3CC(C)(C)O)nc(N)nc2-c2ccc(F)cc2)cc(C(F)F)n1 , would its reported IC50 be below 4 nM? Criterion not met

Quick check: does Cc1cc(-c2c(OCCCN3CCN(c4ccc(F)cc4F)CC3)nc(N)nc2-c2ccccc2)cc(C(F)(F)F)n1 have IC50 under 4 nM? Criterion not met

* * *

assay.target: UniProt P29274
test.method.notes: cAMP assay in 293A cells stably expressing the adenosine A2A receptor (CGS21680 stimulation, HTRF)
Format: cell-based
Parameters: expressed in transfected cells; host or cells: 293A cells (Invitrogen, Cat# R705-07) infected with A2A-expressing lentivirus (custom packaged by Biosettia), puromycin selected
measurement.context: 293A-A2AR cells, 0.1% BSA, 8 nM CGS; values separated by / are repeat determinations; read-out: cAMP (nM) 0.1% BSA, 8 nM CGS
Examples of molecules with documented log10(IC50) follow.
Form field - Quantity: IC50; Unit: nM; Scale: log10

Worked cases, log10(IC50) given:
[
  {
    "molecule": "Cc1cc(-c2c(OCc3cnnn3C(C)C)nc(N)nc2-c2ccc(F)cc2)cc(C(F)F)n1 [Example 180]",
    "log10(IC50)": 0.40
  },
  {
    "molecule": "Cc1cc(-c2c(OCC(C)(C)C(=O)O)nc(N)nc2-c2ccc(F)cc2)cc(C(F)F)n1 [Example 61]",
    "log10(IC50)": 2.37
  },
  {
    "molecule": "Cc1cc(-c2c(OCCN(C)c3ccccc3)nc(N)nc2-c2ccc(F)cc2)cc(C(F)F)n1 [Example 87]",
    "log10(IC50)": 0.34
  },
  {
    "molecule": "Cc1cc(-c2c(OCCN(C)c3ccc(S(C)(=O)=O)cn3)nc(N)nc2-c2ccc(F)cc2)cc(C(F)F)n1 [Example 157]",
    "log10(IC50)": 1.72
  }
]

Respond only with log10(IC50) recorded for Cc1cc(-c2c(OCC(=O)NCC(F)(F)F)nc(N)nc2-c2ccc(F)cc2)cc(C(F)F)n1 [Example 161] 1.15

Supply log10(IC50) value. Item: CCN(C(=O)COc1nc(N)nc(-c2ccc(F)cc2)c1-c1cc(C)nc(C(F)F)c1)c1ccccc1 [Example 90] 0.83

Give a short answer stating reported log10(IC50) for CCN(C(=O)COc1nc(N)nc(-c2ccc(F)cc2)c1-c1cc(C)nc(C(F)F)c1)c1ccccn1 [Example 117] . 1.43

Note log10(IC50) for the molecule shown: CCN(CC)C(=O)COc1nc(N)nc(-c2ccccc2)c1-c1cc(C)nc(C(F)(F)F)c1 [Example 3] -0.22

Identify measured log10(IC50) corresponding to CCN(CC)C(=O)[C@@H](C)Oc1nc(N)nc(-c2ccccc2)c1-c1cc(C)nc(C(F)(F)F)c1 [Example 13] 2.21

Could you please provide reported log10(IC50) for CCc1nn[nH]c1COc1nc(N)nc(-c2ccc(F)cc2)c1-c1cc(C)nc(C(F)F)c1 [Example 137] ? Thanks! 1.60

Note down log10(IC50) recorded for Cc1cc(-c2c(OCc3n[nH]cc3C(C)C)nc(N)nc2-c2ccc(F)cc2)cc(C(F)F)n1 [Example 183] 1.08

Please indicate log10(IC50) recorded for Cc1cc(-c2c(OCC(=O)NC(C)C)nc(N)nc2-c2ccc(F)cc2)cc(C(F)F)n1 [Example 41] 0.61

Answer with the recorded log10(IC50) of CCN(CC)C(=O)COc1nc(N)nc(-c2ccc(C)o2)c1-c1cc(C)nc(C(F)(F)F)c1 [Example 12] only. 0.30

* * *

assay.target: Adenosine A2A receptor (Homo sapiens)
test.method.notes: Adenosine A2A receptor competitive binding assay (Tag-lite HTRF)
measurement.context: Tag-lite adenosine A2A receptor ligand binding, HTRF
Measured IC50, listed per entry for reference.
Note: unit µM is implicit; provide only the numeric part.

# example entries with known answers
[
  {
    "molecule": "CCc1nnn(C)c1COc1nc(N)nc(-c2ccc(F)cc2)c1-c1cc(C)nc(C(F)F)c1",
    "IC50 / µM": 0.013
  },
  {
    "molecule": "Cc1cc(-c2c(OCc3nc(C#N)cn3C(C)C)nc(N)nc2-c2ccc(F)cc2)cc(C(F)F)n1",
    "IC50 / µM": 0.003
  },
  {
    "molecule": "Cc1cc(-c2c(OCc3nccn3C(C)C(=O)O)nc(N)nc2-c2ccc(F)cc2)cc(C(F)F)n1 (stereo not shown)",
    "IC50 / µM": 0.012
  }
]

Next, consider the following molecule.
Given Cc1cc(-c2c(OCc3ccc(C(C)(C)O)cn3)nc(N)nc2-c2ccc(F)cc2)cc(C(F)F)n1 , respond with its IC50. 0.021

* * *

assay.target: UniProt P29274
test.method.notes: cAMP assay in 293A cells stably expressing the adenosine A2A receptor (CGS21680 stimulation, HTRF)
Assay type: cell-based
Design: expressed in transfected cells; host or cells: 293A cells (Invitrogen, Cat# R705-07) infected with A2A-expressing lentivirus (custom packaged by Biosettia), puromycin selected
measurement.context: 293A-A2AR cells, 0.1% BSA, 8 nM CGS; values separated by / are repeat determinations; read-out: cAMP (nM) 0.1% BSA, 8 nM CGS
assay.endpoint: IC50 (nM)
State just the number; it will be interpreted in nM.

[
  {
    "compound": "CCNC(=O)Nc1ccc(CCOc2nc(N)nc(-c3ccc(F)cc3)c2-c2cc(C)nc(C(F)F)c2)cc1 [Example 67]",
    "assay.target": "UniProt P29274",
    "unit.descriptor": "nM",
    "IC50": 4.7
  },
  {
    "compound": "Cc1cc(-c2c(OCc3ncnn3C(C)C)nc(N)nc2-c2ccc(F)cc2)cc(C(F)F)n1 [Example 179]",
    "assay.target": "UniProt P29274",
    "unit.descriptor": "nM",
    "IC50": 2.9
  },
  {
    "compound": "CCNCCOc1nc(N)nc(-c2ccc(F)cc2)c1-c1cc(C)nc(C(F)F)c1 [Example 65]",
    "assay.target": "UniProt P29274",
    "unit.descriptor": "nM",
    "IC50": 1.6
  }
]

// fetch IC50 for CNC(=O)OCCOc1nc(N)nc(-c2ccc(F)cc2)c1-c1cc(C)nc(C(F)F)c1 [Example 143] ; system: UniProt P29274 8.1

Provide IC50, tested on UniProt P29274, for Cc1cc(-c2c(OCc3nc(C)n[nH]3)nc(N)nc2-c2ccc(F)cc2)cc(C(F)F)n1 [Example 97] . 4.5
